- ASSAYED TARGET: CDK4/D1 (Homo sapiens, UniProt P11802)
- Sequence (P11802 whole entry): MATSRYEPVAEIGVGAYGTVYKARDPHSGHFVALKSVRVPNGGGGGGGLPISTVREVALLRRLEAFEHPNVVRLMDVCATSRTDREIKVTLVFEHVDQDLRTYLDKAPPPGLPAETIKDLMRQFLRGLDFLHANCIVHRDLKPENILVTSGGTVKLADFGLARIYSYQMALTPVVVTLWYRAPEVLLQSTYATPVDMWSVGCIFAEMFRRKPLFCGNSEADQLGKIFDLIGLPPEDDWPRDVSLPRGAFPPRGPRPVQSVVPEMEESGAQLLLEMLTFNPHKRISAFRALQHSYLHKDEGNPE
- Sequence (P24385 whole entry partner): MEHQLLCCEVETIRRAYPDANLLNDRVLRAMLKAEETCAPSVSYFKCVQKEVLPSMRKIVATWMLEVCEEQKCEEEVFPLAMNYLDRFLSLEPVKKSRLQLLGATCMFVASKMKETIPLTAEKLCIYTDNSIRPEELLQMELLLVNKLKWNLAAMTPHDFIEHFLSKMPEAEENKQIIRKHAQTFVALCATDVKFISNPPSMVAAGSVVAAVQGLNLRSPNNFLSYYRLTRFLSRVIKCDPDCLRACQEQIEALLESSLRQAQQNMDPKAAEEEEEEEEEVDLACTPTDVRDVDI
- PROTOCOL NOTES: Kinase inhibition assay CDK4/D1
- Type: biochemical
- CONDITION SET: read-out: IC50 CDK4
Provide the recorded IC50 for the entries that follow.

Below, each entry is followed by its recorded IC50 result.
COMPOUND	READOUT NAME	RESULT
Cn1c(=O)n([C@H]2CC[C@H](C)CC2)c2nc(Nc3ccc(N4CCNCC4)cc3)ncc21 [14g]	IC50	≤ 0.3 µM
Cn1c(=O)n(C2CCCCCCC2)c2nc(Nc3ccc(N4CCNCC4)cc3)ncc21 [14i]	IC50	≤ 0.3 µM

For each listed entry, give its IC50.
1. Cn1c(=O)n(C2CCCCCC2)c2nc(Nc3ccc(N4CCNCC4)cc3)ncc21 [14h]
2. Cn1c(=O)n(C2CCCCC2)c2nc(Nc3ccc(N4CCNCC4)cc3)ncc21 [14e]
3. Cn1c(=O)n(-c2ccccc2)c2nc(Nc3ccc(N4CCNCC4)cc3)ncc21 [14m]
4. Cn1c(=O)n(C2CCC2)c2nc(Nc3ccc(N4CCNCC4)cc3)ncc21 [14c]

[out]
≤ 0.3 µM
≤ 0.3 µM
0.4 to 0.52 µM
0.4 to 0.52 µM
